System: MOLT-4 leukemia
PROTOCOL_DESCRIPTION: NCI-60 one-dose screen, 48 h (100 = growth as untreated, 0 = no growth, -100 = all killed)
CONDITION: 10 µM
Compounds without any hit were thinned out: in the full panel of roughly 83,000, 20% have a hit.
METRIC_NAME: growth (%)
Give bare numbers, in %.

Recorded growth, per entry:
>  <COMPOUND>
CCN(CCCCCCN1CC(=O)N(CCCCCCN(CC)Cc2ccccc2OC)CC1=O)Cc1ccccc1OC

>  <growth (%)>
42.7

$$$$
>  <COMPOUND>
C#Cc1ccc(-n2c(/C=C/c3ccc4ccccc4c3)nc3ncccc3c2=O)cc1

>  <growth (%)>
4.88

$$$$

Respectfully, I request growth for each entry included below.
1. Nc1ccccc1NC(=O)CCCCC(=O)Nc1ccc2c(c1)/C(=C/c1ccc[nH]1)C(=O)N2
2. CCOCC(=O)C(C#N)c1ccc(Cl)c(Cl)c1 (stereo not given)
3. O=c1cc(-c2ccccc2)[nH]n1-c1nc2ccccc2[nH]1

1: 47.7; 2: 101; 3: -18.6

Give growth for each of the items listed below.
1. O=C(NC(Cc1ccc(O)cc1)C(=O)N=Nc1c(O)[nH]c2ccccc12)c1ccccc1 (stereo not given)
2. COc1cc(NC(=O)CCSc2nc3ccc(Cl)cc3c(=O)n2Cc2ccccc2)cc(OC)c1OC
3. O=C(N/N=C/c1cc2ccccc2c2ccccc12)c1cc(O)c(O)c(O)c1
4. CCc1ccc2c(c1)N(CCO)C1=C(C(=O)OC1)C2c1ccccc1 (stereo not given)
5. O=C(O)CC(Cl)C(Cl)CC(=O)O (stereo not given)
6. COc1cc(-c2cc(C(=O)N3CCN(C(=O)c4ccccc4NCc4ccco4)CC3)nc3cc(-c4ccccc4)nn23)cc(OC)c1OC
7. c1ccc([C@H]2CN3CCSC3=N2)cc1

92.1
60.6
35.6
83
97.1
37.8
98.5

Would you be so kind as to report growth for each listed record?
1. O=C(Nc1cccc(-n2cc(-c3ccncc3)c(-c3ccc(O)c(Cl)c3)n2)c1)c1ccc(N2CCOCC2)c(C(F)(F)F)c1
2. COc1cc(C(=C2O[C@@H]([C@H]3COC(C)(C)O3)[C@H]3OC(C)(C)O[C@@H]23)c2cc(OC)c(OC)c(OC)c2)cc(OC)c1OC
3. N#Cc1c(C#N)c(SSc2c(C#N)c(C#N)c(N)n2-c2ccccc2)n(-c2ccccc2)c1N
4. O=c1[nH]c(-c2ccc(Cl)cc2)nc2sc3c(c12)CCCC3

40.2
99.8
106
49.4

Below are some compounds; for each one, tell me its growth.
1. Nc1nc(N=Nc2ccc(O)cc2)cc(=O)[nH]1
2. O=C(Nc1ccncc1)C(=O)c1cn(S(=O)(=O)c2cc(Cl)cc(Cl)c2)c2ccccc12
3. Nc1ncnc2[nH]c(=O)[nH]c12
4. O=C(O)C(SC(C(=O)O)c1ccccc1)c1ccccc1 (stereo not given)

104
73
138
103

---

Test system: MDA-MB-231 breast
PROTOCOL_DESCRIPTION: NCI-60 one-dose screen, 48 h
CONDITION: 10 µM
This is part of a sample that, as a whole, favours compounds with a hit. Of some 83,000 tested, about 20% had one in any assay. Active and inactive are the calls of the source. Rule for the calls: active = growth percent below 10; inactive = the rest.
Assign a class; possible classes are yes (active), no (inactive)

Sample answers from the record:
>  <MOLECULE>
CCN1Cc2c(/C=C/c3ccccc3)nc3ccc(OC)cc3c2N(c2cccc(Cl)c2)C1

>  <QUALITATIVE_LABEL>
no

$$$$
>  <MOLECULE>
CCN(CC)CCSCCCNc1c2ccc(Cl)cc2nc2ccc(OC)cc12

>  <QUALITATIVE_LABEL>
yes

$$$$
>  <MOLECULE>
O=C(N/N=C\c1cc(Cl)ccc1[N+](=O)[O-])c1ccco1

>  <QUALITATIVE_LABEL>
no

$$$$
>  <MOLECULE>
C[N+](C)(C)c1ncnc2nc[nH]c12

>  <QUALITATIVE_LABEL>
no

$$$$
>  <MOLECULE>
CN(C)Cc1cn(-c2ncc(-c3ccc(C(F)(F)F)cc3)c(NC3CCCCCC3)n2)nn1

>  <QUALITATIVE_LABEL>
no

$$$$
>  <MOLECULE>
COc1ccc(OC)c2c1C(=O)CC2C (stereo unspecified)

>  <QUALITATIVE_LABEL>
no

$$$$
>  <MOLECULE>
COc1ccc(-c2nn(-c3cccc(NC(=O)Nc4cccc(C(F)(F)F)c4)c3)cc2-c2ccncc2)cc1Cl

>  <QUALITATIVE_LABEL>
yes

$$$$
>  <MOLECULE>
COc1ccc(-c2nn(-c3cccc(NC(=O)Nc4cc(C(F)(F)F)cc(C(F)(F)F)c4)c3)cc2-c2ccncc2)cc1Cl

>  <QUALITATIVE_LABEL>
yes

$$$$

GET /call?item= `COc1ccc(-c2nc(-c3nc4cc(Cl)c(Cl)cc4[nH]3)c3ccccn23)cc1` returns the recorded outcome of this test.
yes

So what was the verdict on `COc1ccccc1CNCCN1C(=O)c2ccc3c4c(ccc(c24)C1=O)C(=O)N(CCNCc1ccccc1OC)C3=O` in this test?
yes

How did this test come out for O=C(NN1C(=O)CSC1c1ccc(Cl)cc1)c1cccnc1 (stereo unspecified) ?
no

Tell me the assay call for `COc1cc(NC(=O)CCSc2nc3ccc(C)cc3c(=O)n2Cc2ccccc2)cc(OC)c1OC` please.
no

---

Tested on: IGROV1 ovarian
PROTOCOL_DESCRIPTION: NCI-60 one-dose screen, 48 h (100 = growth as untreated, 0 = no growth, -100 = all killed)
CONDITION: 10 µM
Procedure: Growth inhibition of the IGROV1 human tumor cell line is measured as a screen for anti-cancer activity. Cells are grown in 96 well plates and exposed to the test compound for 48 hours. Compounds are tested at a single concentration, which is 10^-5 M for most compounds. The reported endpoint is percent growth (GI% or GIPRCNT), where numbers from 0 - 100% represent growth inhibition, and numbers from -100% - 0 represent cell death. For example, a value of 40 represents 60% growth inhibition. […]
Compounds without any hit were thinned out: in the full panel of roughly 83,000, 20% have a hit.
What growth was measured for each of the following?
Numbers only, in %.

Illustrative cases are given below, each with its answer.
>  <MOLECULE>
O=C1OCC2=C1C(c1cccc(Cl)c1)c1cc3c(cc1N2CCO)OCCO3 (stereo unspecified)

>  <UNIT_INFO>
%

>  <growth>
22.2

$$$$
>  <MOLECULE>
O=C1CC[C@@H]2CCCC[C@@H]2C1

>  <UNIT_INFO>
%

>  <growth>
105

$$$$
>  <MOLECULE>
c1ccc2c(c1)oc1c3c(ccc12)NCCC3

>  <UNIT_INFO>
%

>  <growth>
98.6

$$$$

Field: growth. Fill in for each record below.
1. COc1ccc(-c2cc(/C=C3\C(=O)Nc4ccc(Cl)cc43)[nH]n2)cc1OC
2. COc1cc(-c2cc(/C=C/C(=O)c3ccc(N)cc3)[nH]n2)cc(OC)c1OC
3. Cc1nc2c(c(=O)[nH]1)OCN(Cc1ccccc1)C2

1. 66.8
2. 18.1
3. 100

---

Test system: SR leukemia
PROTOCOL_DESCRIPTION: NCI-60 one-dose screen, 48 h (100 = growth as untreated, 0 = no growth, -100 = all killed)
CONDITION: 10 µM
This is part of a sample that, as a whole, favours compounds with a hit. Of some 83,000 tested, about 20% had one in any assay.
Values of growth greater than or equal to 40% map to fulfilled; values below map to not fulfilled.

The following compounds have reported results that may help.
>  <COMPOUND>
COc1ccc(-c2nn(-c3cccc(NC(=O)c4ccc5c(c4)OCCO5)c3)cc2-c2ccncc2)cc1Cl

>  <QUALITATIVE_LABEL>
not fulfilled

$$$$
>  <COMPOUND>
Cc1ccc(C(=O)N2C/C(=C/c3ccc(F)cc3)C(=O)/C(=C/c3ccc(F)cc3)C2)cc1

>  <QUALITATIVE_LABEL>
not fulfilled

$$$$
>  <COMPOUND>
O=[N+]([O-])c1ccc(Oc2cc(Cl)c(Cl)cc2Cl)c(C(F)(F)F)c1

>  <QUALITATIVE_LABEL>
fulfilled

$$$$

Assess whether reported growth for `COc1ccc(-c2nc(-c3nc4ccc(OC)cc4[nH]3)cc3c2[nH]c2ccccc23)cc1` sits at 40% or higher.
not fulfilled

Is growth at least 40%? Consider `CC/C(=N\N=C(/CC)c1ccc(Br)cc1)c1ccc(Br)cc1`
fulfilled

Decide: growth of `COc1ccc(Oc2nc(NC3CCCC3)nc(Sc3ccc(OC)cc3)n2)cc1` >= 40%?
fulfilled

Kindly determine if growth recorded for `C#Cc1ccc(-n2c(/C=C/c3cc(OC)cc(OC)c3)nc3ncccc3c2=O)cc1` is above or exactly 40%.
fulfilled

Reported growth reaches at least 40% for `COc1ccc(-c2nn(-c3cccc(NC(=O)c4ccc(N5CCOCC5)c(C(F)(F)F)c4)c3)cc2-c2ccncc2)cc1Cl` ?
not fulfilled

Please indicate if the recorded growth for `COc1ccc(/C=C/C(=O)Nc2ccc(-c3nc4ccc(OC)cc4s3)cc2)cc1` meets or exceeds 40%.
fulfilled

Reported growth at or above 40%? `COc1cc(CNCCCCCCN2C(=O)c3cccc4cccc(c34)C2=O)ccc1O`
not fulfilled

Check if growth >= 40% (inclusive). Item: `CCN1CCN(c2nc3ccccc3c3c(=O)c4ccccc4sc23)CC1`
not fulfilled

Record `COc1cc(Cl)cc(-c2nn(-c3cccc(NC(=O)c4ccc(Cl)c(Cl)c4)c3)cc2-c2ccncc2)c1` ; criterion: growth no lower than 40%. Met?
fulfilled

Quick check, growth >= 40%? `Cc1ccc(CC#N)cc1C`
fulfilled

Check if growth >= 40% (inclusive). Item: `O=C(Nc1ccc(Cl)c([N+](=O)[O-])c1)Nc1nc2ccccc2s1`
fulfilled

Is it the case that O=C(CC(C(=O)c1ccccc1)N1CCOCC1)c1ccccc1 (stereo unspecified) has growth reaching or exceeding 40%?
not fulfilled
